Every entry's value here was drawn from paper PMC10300901.

List of IC50 values.
test system: Hela; assay: MTT cytotoxicity assay, Hela; assay type: cell-based
READOUT NAME: IC50

- N.N.[Cl][Pt][Cl] [Cisplatin, reference compound]: 15.3 µM
- O.O.[Cl][Mn][O]c1cc(Cl)ccc1N=Cc1ccc2ccccc2n1 [C3]: > 40 µM
- [Cl][Cu][O]c1cc(Cl)ccc1N=Cc1ccc2ccccc2n1 [C1]: 6.31 µM

----------
system: MCF-7; test: MTT cytotoxicity assay, MCF-7; type: cell-based; conditions: Homo sapiens, MCF7
READOUT NAME: IC50

• Oc1cc(Cl)ccc1/N=C/c1ccc2ccccc2n1 = > 40 µM

----------
tested on: A549 cells; experiment: MTT cytotoxicity assay, A549; conditions: Homo sapiens, A549, read-out: IC50 A549
pIC50: −log10 of the molar value.
READOUT NAME: pIC50

* Oc1cc(Cl)ccc1/N=C/c1ccc2ccccc2n1 | < 4.40
